Where do these numbers come from? They come from ChEMBL document CHEMBL2346588.

Field: IC50. Provide a value for each of the molecules that follow.
Molecular target: Enoyl-acyl carrier reductase (Toxoplasma gondii)
Sequence (Q6UCJ9 whole entry): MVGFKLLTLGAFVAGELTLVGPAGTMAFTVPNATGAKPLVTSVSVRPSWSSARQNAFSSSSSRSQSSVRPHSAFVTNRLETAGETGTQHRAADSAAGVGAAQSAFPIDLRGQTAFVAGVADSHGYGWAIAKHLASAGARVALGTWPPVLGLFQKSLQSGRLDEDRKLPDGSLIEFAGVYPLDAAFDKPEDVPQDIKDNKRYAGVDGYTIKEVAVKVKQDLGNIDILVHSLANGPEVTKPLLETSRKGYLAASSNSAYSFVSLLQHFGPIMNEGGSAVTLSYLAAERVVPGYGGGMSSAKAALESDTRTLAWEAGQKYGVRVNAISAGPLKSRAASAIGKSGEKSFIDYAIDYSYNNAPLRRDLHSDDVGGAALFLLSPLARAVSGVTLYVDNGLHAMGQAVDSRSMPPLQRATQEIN
Test: Inhibition of Toxoplasma gondii enoyl reductase assessed as conversion of trans-2-acyl-ACP to acyl-ACP
Numbers only, in nM.

Reference set, count: 5
[[record]]
smiles_repr = "Oc1cc(Cl)ccc1Oc1ccc2ncccc2c1"
measure_name = "IC50"
experimental_result = 135

[[record]]
smiles_repr = "Oc1cc(Cl)ccc1Oc1ccc2ccccc2c1"
measure_name = "IC50"
experimental_result = 41

[[record]]
smiles_repr = "CC(=O)N1CCN(c2ccc(Oc3ccc(Cl)cc3O)cc2)CC1"
measure_name = "IC50"
experimental_result = 225

[[record]]
smiles_repr = "Cc1cc(NC(=O)c2ccc(Oc3ccc(Cl)cc3O)o2)no1"
measure_name = "IC50"
experimental_result = 58

[[record]]
smiles_repr = "CC(=O)N1CCN(Cc2ccc(Oc3ccc(Cl)cc3O)s2)CC1"
measure_name = "IC50"
experimental_result = 965


Next item in the queue.
IC50 recorded for this molecule, Oc1cc(Cl)ccc1Oc1ccc(C(F)(F)F)cc1Cl , is 30
